Test system: Kuramochi
assay_method_text: drug sensitivity score (DSS) from 5-point dose-response viability curve (DSS (area-under-curve based score)); higher = more sensitive (stronger growth inhibition or killing); extreme values may be limits of the assay
measurement_conditions: exposure time: 72 h; concentration range: 5 concentrations over 10,000-fold range
# drug sensitivity score binned as zone 1: < 0.7; zone 2: ≥ 0.7 and < 3; zone 3: ≥ 3

Nc1ncnc2c1nc(N)n2[C@@H]1O[C@H](CO)[C@@H](O)[C@H]1O: zone 3
COc1ccc(-c2nc(N3CCOCC3)c3sc(CN(C)c4ncc(C(=O)NO)cn4)cc3n2)cn1: zone 3
C[C@H]1CN(C2COC2)CCN1c1ccc(Nc2cc(-c3ccnc(N4CCn5c(cc6c5CC(C)(C)C6)C4=O)c3CO)cn(C)c2=O)nc1: zone 1
CC1(C)CC[C@]2(NC(=O)C(C)(F)F)CC[C@]3(C)[C@H](C(=O)C=C4[C@@]5(C)C=C(C#N)C(=O)C(C)(C)[C@@H]5CC[C@]43C)[C@@H]2C1: zone 3
Cc1cccc(-c2nn3c(c2-c2ccnc4ccc(C(N)=O)cc24)CCC3)n1: zone 1

Record O=C1NC(=O)[C@@H](c2cn3c4c(cccc24)CCC3)[C@@H]1c1c[nH]c2ccccc12 [Tivantinib] — which class? zone 2

Record O=c1sn(-c2cccc3ccccc23)c(=O)n1Cc1ccccc1 — which class? zone 1

Record Oc1ccc2c(c1)CC[C@H](c1ccccc1)[C@@H]2c1ccc(OCCN2CCCC2)cc1 — which class? zone 1

The reported numbers originate from the supplement of paper PMC11616607.
